Source of measurements: ChEMBL document CHEMBL1275524

List of MFC values.
tested on: Cryptococcus gattii; test: Antifungal activity against Cryptococcus neoformans var. gattii; type: functional, Cryptococcus bacillisporus
Entry rule: numbers only, all in µg/mL.

Consider the reported MFC for these molecules:
| Molecule | MFC (µg/mL) |
| --- | --- |
| CCC(C)n1ncn(-c2ccc(N3CCN(c4ccc(OCC5COC(Cn6cncn6)(c6ccc(Cl)cc6Cl)O5)cc4)CC3)cc2)c1=O (stereo not given) | 0.5 |
| C[C@@H](c1ncncc1F)[C@](O)(Cn1cncn1)c1ccc(F)cc1F | 0.125 |
| CC[C@@H]([C@H](C)O)n1ncn(-c2ccc(N3CCN(c4ccc(OC[C@@H]5CO[C@@](Cn6cncn6)(c6ccc(F)cc6F)C5)cc4)CC3)cc2)c1=O | 0.125 |

Here is another molecule to look at.
Looking up C[C@@H]1[C@H](O)[C@@H](C)/C=C/C=C/C=C/C=C/C=C/C=C/C=C/[C@H](O[C@@H]2O[C@H](C)[C@@H](O)[C@H](N)[C@@H]2O)C[C@@H]2O[C@](O)(C[C@@H](O)C[C@@H](O)[C@H](O)CC[C@@H](O)C[C@@H](O)CC(=O)O[C@H]1C)C[C@H](O)[C@H]2C(=O)O , I see its MFC listed as 1

====

system: Aspergillus flavus; test: Antifungal activity against Aspergillus flavus by EUCAST method; assay type: functional
Reported metric: MIC (µg/mL)
Entry rule: numbers only, all in µg/mL.

| Molecule | Experimental target | Unit of measure | MIC |
| --- | --- | --- | --- |
| C[C@@H]1[C@H](O)[C@@H](C)/C=C/C=C/C=C/C=C/C=C/C=C/C=C/[C@H](O[C@@H]2O[C@H](C)[C@@H](O)[C@H](N)[C@@H]2O)C[C@@H]2O[C@](O)(C[C@@H](O)C[C@@H](O)[C@H](O)CC[C@@H](O)C[C@@H](O)CC(=O)O[C@H]1C)C[C@H](O)[C@H]2C(=O)O | Aspergillus flavus | µg/mL | 1.51 |
| CC[C@H](C)C[C@H](C)CCCCCCCCC(=O)N[C@H]1C[C@@H](O)[C@@H](NCCN)NC(=O)[C@@H]2[C@@H](O)CCN2C(=O)[C@H]([C@H](O)CCN)NC(=O)[C@H]([C@H](O)[C@@H](O)c2ccc(O)cc2)NC(=O)[C@@H]2C[C@@H](O)CN2C(=O)[C@H]([C@@H](C)O)NC1=O | Aspergillus flavus | µg/mL | 0.28 |
| CCC(C)n1ncn(-c2ccc(N3CCN(c4ccc(OCC5COC(Cn6cncn6)(c6ccc(Cl)cc6Cl)O5)cc4)CC3)cc2)c1=O (stereo not given) | Aspergillus flavus | µg/mL | 0.59 |
| CC[C@@H]([C@H](C)O)n1ncn(-c2ccc(N3CCN(c4ccc(OC[C@@H]5CO[C@@](Cn6cncn6)(c6ccc(F)cc6F)C5)cc4)CC3)cc2)c1=O | Aspergillus flavus | µg/mL | 0.21 |

Here is another molecule to look at.
Looking up C[C@@H](c1ncncc1F)[C@](O)(Cn1cncn1)c1ccc(F)cc1F , I see its MIC listed as 0.41

====

system: Cunninghamella; test: Antifungal activity against Cunninghamella species by EUCAST method; format: functional
Reported metric: MIC (µg/mL)
Entry rule: numbers only, all in µg/mL.

Consider the reported MIC for these compounds:
| Compound | Reported metric | Unit of measure | Recorded value |
| --- | --- | --- | --- |
| CC[C@@H]([C@H](C)O)n1ncn(-c2ccc(N3CCN(c4ccc(OC[C@@H]5CO[C@@](Cn6cncn6)(c6ccc(F)cc6F)C5)cc4)CC3)cc2)c1=O [POSACONAZOLE] | MIC | µg/mL | 2 |
| C[C@@H]1[C@H](O)[C@@H](C)/C=C/C=C/C=C/C=C/C=C/C=C/C=C/[C@H](O[C@@H]2O[C@H](C)[C@@H](O)[C@H](N)[C@@H]2O)C[C@@H]2O[C@](O)(C[C@@H](O)C[C@@H](O)[C@H](O)CC[C@@H](O)C[C@@H](O)CC(=O)O[C@H]1C)C[C@H](O)[C@H]2C(=O)O [AMPHOTERICIN B] | MIC | µg/mL | 2.25 |

Here is another compound to look at.
Observed MIC, Cunninghamella, CCC(C)n1ncn(-c2ccc(N3CCN(c4ccc(OCC5COC(Cn6cncn6)(c6ccc(Cl)cc6Cl)O5)cc4)CC3)cc2)c1=O (centres undefined) [ITRACONAZOLE] : 1.75

====

system: Pichia kudriavzevii; assay: Antifungal activity against Candida krusei; format: functional
Reported metric: MFC (mg/L)
Entry rule: numbers only, all in mg/L.

Consider the reported MFC for these molecules:
| Molecule | Unit of measure | Recorded value |
| --- | --- | --- |
| C[C@@H](c1ncncc1F)[C@](O)(Cn1cncn1)c1ccc(F)cc1F [VORICONAZOLE] | mg/L | 0.5 |
| CC[C@@H]([C@H](C)O)n1ncn(-c2ccc(N3CCN(c4ccc(OC[C@@H]5CO[C@@](Cn6cncn6)(c6ccc(F)cc6F)C5)cc4)CC3)cc2)c1=O [POSACONAZOLE] | mg/L | 0.5 |
| CC[C@H](C)C[C@H](C)CCCCCCCCC(=O)N[C@H]1C[C@@H](O)[C@@H](NCCN)NC(=O)[C@@H]2[C@@H](O)CCN2C(=O)[C@H]([C@H](O)CCN)NC(=O)[C@H]([C@H](O)[C@@H](O)c2ccc(O)cc2)NC(=O)[C@@H]2C[C@@H](O)CN2C(=O)[C@H]([C@@H](C)O)NC1=O [CASPOFUNGIN] | mg/L | 2 |
| C[C@@H]1[C@H](O)[C@@H](C)/C=C/C=C/C=C/C=C/C=C/C=C/C=C/[C@H](O[C@@H]2O[C@H](C)[C@@H](O)[C@H](N)[C@@H]2O)C[C@@H]2O[C@](O)(C[C@@H](O)C[C@@H](O)[C@H](O)CC[C@@H](O)C[C@@H](O)CC(=O)O[C@H]1C)C[C@H](O)[C@H]2C(=O)O [AMPHOTERICIN B] | mg/L | 0.5 |

Here is another molecule to look at.
Looking up CCC(C)n1ncn(-c2ccc(N3CCN(c4ccc(OCC5COC(Cn6cncn6)(c6ccc(Cl)cc6Cl)O5)cc4)CC3)cc2)c1=O (stereo not given) [ITRACONAZOLE] , I see its MFC listed as 0.5

====

assay: Antifungal activity against Rhinocladiella aquaspersa; type: functional
Reported metric: MFC (µg/mL)
Entry rule: numbers only, all in µg/mL.

Looking up C[C@@H]1[C@H](O)[C@@H](C)/C=C/C=C/C=C/C=C/C=C/C=C/C=C/[C@H](O[C@@H]2O[C@H](C)[C@@H](O)[C@H](N)[C@@H]2O)C[C@@H]2O[C@](O)(C[C@@H](O)C[C@@H](O)[C@H](O)CC[C@@H](O)C[C@@H](O)CC(=O)O[C@H]1C)C[C@H](O)[C@H]2C(=O)O [AMPHOTERICIN B] , I see its MFC listed as 1

====

tested on: Candida parapsilosis; experiment: Antifungal activity against Candida parapsilosis; assay type: functional; conditions: Lodderomyces parapsilosis
Reported metric: MFC (µg/mL)
Entry rule: numbers only, all in µg/mL.

Consider the reported MFC for these compounds:
| Compound | Reported metric | Recorded value |
| --- | --- | --- |
| C[C@@H]1[C@H](O)[C@@H](C)/C=C/C=C/C=C/C=C/C=C/C=C/C=C/[C@H](O[C@@H]2O[C@H](C)[C@@H](O)[C@H](N)[C@@H]2O)C[C@@H]2O[C@](O)(C[C@@H](O)C[C@@H](O)[C@H](O)CC[C@@H](O)C[C@@H](O)CC(=O)O[C@H]1C)C[C@H](O)[C@H]2C(=O)O [AMPHOTERICIN B] | MFC | 4 |
| CCC(C)n1ncn(-c2ccc(N3CCN(c4ccc(OCC5COC(Cn6cncn6)(c6ccc(Cl)cc6Cl)O5)cc4)CC3)cc2)c1=O (stereo not given) [ITRACONAZOLE] | MFC | 0.06 |
| CC[C@@H]([C@H](C)O)n1ncn(-c2ccc(N3CCN(c4ccc(OC[C@@H]5CO[C@@](Cn6cncn6)(c6ccc(F)cc6F)C5)cc4)CC3)cc2)c1=O [POSACONAZOLE] | MFC | 0.06 |
| CC[C@H](C)C[C@H](C)CCCCCCCCC(=O)N[C@H]1C[C@@H](O)[C@@H](NCCN)NC(=O)[C@@H]2[C@@H](O)CCN2C(=O)[C@H]([C@H](O)CCN)NC(=O)[C@H]([C@H](O)[C@@H](O)c2ccc(O)cc2)NC(=O)[C@@H]2C[C@@H](O)CN2C(=O)[C@H]([C@@H](C)O)NC1=O [CASPOFUNGIN] | MFC | 0.25 |

Here is another compound to look at.
Looking up C[C@@H](c1ncncc1F)[C@](O)(Cn1cncn1)c1ccc(F)cc1F [VORICONAZOLE] , I see its MFC listed as 0.06
